Provenance of the data: the supplement of paper PMC9112550

Recorded shrunken log2 fold change, one value per entry.
- Tested on: Escherichia coli TOP10;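 note: peptides expressed intracellularly from a pBAD plasmid library in pooled LB shake-flask culture, induced with 0.3% L-arabinose, DNA abundance read by NGS, three biological replicates, DESeq2 with apeglm shrinkage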
- Test protocol: shrunken log2 fold change of peptide-encoding DNA abundance (4.5 h post-induction vs induction); higher = less antimicrobial activity (less host growth inhibition)
- Condition info: time post-induction: 4.5 h; library: site-saturation at positions 5, 18, 19, 20
Answer with a bare number; do not write a unit.

Some sequences with recorded shrunken log2 fold change:
- Biopolymer sequence: "RRIRGRPPRLPRPRPRPKGVPRP"
  Tgt: "Escherichia coli TOP10"
  shrunken log2 fold change: 0.123
- Biopolymer sequence: "RRIRGRPPRLPRPRPRPGESPRP"
  Tgt: "Escherichia coli TOP10"
  shrunken log2 fold change: 0.584
- Biopolymer sequence: "RRIRHRPPRLPRPRPRPINGPRP"
  Tgt: "Escherichia coli TOP10"
  shrunken log2 fold change: -0.437
- Biopolymer sequence: "RRIRGRPPRLPRPRPRPQTQPRP"
  Tgt: "Escherichia coli TOP10"
  shrunken log2 fold change: 2.07
- Biopolymer sequence: "RRIRWRPPRLPRPRPRPFFAPRP"
  Tgt: "Escherichia coli TOP10"
  shrunken log2 fold change: 0.367

q: Give shrunken log2 fold change for the following sequence: RRIRNRPPRLPRPRPRPGFMPRP
a: -0.0522
